Recorded values, source the supplement of paper PMC5998384.

Measured solubility in G1/S (log2) by item
- Tested on: HeLa Kyoto
- assay_details: solubility in G1/S (NP-40 vs SDS abundance) (log2 ratio); higher = more soluble
- measurement_context: cell cycle stage: G1/S
endpoint_name: solubility in G1/S (log2)

1) MVRTKTWTLKKHFVGYPTNSDFELKTAELPPLKNGEVLLEALFLTVDPYMRVAAKRLKEGDTMMGQQVAKVVESKNVALPKGTIVLASPGWTTHSISDGKDLEKLLTEWPDTIPLSLALGTVGMPGLTAYFGLLEICGVKGGETVMVNAAAGAVGSVVGQIAKLKGCKVVGAVGSDEKVAYLQKLGFDVVFNYKTVESLEETLKKASPDGYDCYFDNVGGEFSNTVIGQMKKFGRIAICGAISTYNRTGPLPPGPPPEIVIYQELRMEAFVVYRWQGDARQKALKDLLKWVLEGKIQYKEYIIEGFENMPAAFMGMLKGDNLGKTIVKA [PTGR1]    0.248
2) MGEKSENCGVPEDLLNGLKVTDTQEAECAGPPVPDPKNQHSQSKLLRDDEAHLQEDQGEEECFHDCSASFEEEPGADKVENKSNEDVNSSELDEEYLIELEKNMSDEEKQKRREESTRLKEEGNEQFKKGDYIEAESSYSRALEMCPSCFQKERSILFSNRAAARMKQDKKEMAINDCSKAIQLNPSYIRAILRRAELYEKTDKLDEALEDYKSILEKDPSIHQAREACMRLPKQIEERNERLKEEMLGKLKDLGNLVLRPFGLSTENFQIKQDSSTGSYSINFVQNPNNNR [TTC1]    0.455
3) MAEVKVKVQPPDADPVEIENRIIELCHQFPHGITDQVIQNEMPHIEAQQRAVAINRLLSMGQLDLLRSNTGLLYRIKDSQNAGKMKGSDNQEKLVYQIIEDAGNKGIWSRDIRYKSNLPLTEINKILKNLESKKLIKAVKSVAASKKKVYMLYNLQPDRSVTGGAWYSDQDFESEFVEVLNQQCFKFLQSKAETARESKQNPMIQRNSSFASSHEVWKYICELGISKVELSMEDIETILNTLIYDGKVEMTIIAAKEGTVGSVDGHMKLYRAVNPIIPPTGLVRAPCGLCPVFDDCHEGGEISPSNCIYMTEWLEF [POLR3F]    0.528
4) MLQSLAGSSCVRLVERHRSAWCFGFLVLGYLLYLVFGAVVFSSVELPYEDLLRQELRKLKRRFLEEHECLSEQQLEQFLGRVLEASNYGVSVLSNASGNWNWDFTSALFFASTVLSTTGYGHTVPLSDGGKAFCIIYSVIGIPFTLLFLTAVVQRITVHVTRRPVLYFHIRWGFSKQVVAIVHAVLLGFVTVSCFFFIPAAVFSVLEDDWNFLESFYFCFISLSTIGLGDYVPGEGYNQKFRELYKIGITCYLLLGLIAMLVVLETFCELHELKKFRKMFYVKKDKDEDQVHIIEHDQLSFSSITDQAAGMKEDQKQNEPFVATQSSACVDGPANH [KCNK1]    -0.169

----------
Measured melting temperature by item
- Test system: HeLa Kyoto
- assay_details: melting temperature (median over replicates), in situ; higher = more thermally stable
- measurement_context: cell cycle stage: G1/S
endpoint_name: melting temperature (°C)

1. MADVINVSVNLEAFSQAISAIQALRSSVSRVFDCLKDGMRNKETLEGREKAFIAHFQDNLHSVNRDLNELERLSNLVGKPSENHPLHNSGLLSLDPVQDKTPLYSQLLQAYKWSNKLQYHAGLASGLLNQQSLKRSANQMGVSAKRRPKAQPTTLVLPPQYVDDVISRIDRMFPEMSIHLSRPNGTSAMLLVTLGKVLKVIVVMRSLFIDRTIVKGYNENVYTEDGKLDIWSKSNYQVFQKVTDHATTALLHYQLPQMPDVVVRSFMTWLRSYIKLFQAPCQRCGKFLQDGLPPTWRDFRTLEAFHDTCRQ [MED27]    48.5
2. MSRRYDSRTTIFSPEGRLYQVEYAMEAIGHAGTCLGILANDGVLLAAERRNIHKLLDEVFFSEKIYKLNEDMACSVAGITSDANVLTNELRLIAQRYLLQYQEPIPCEQLVTALCDIKQAYTQFGGKRPFGVSLLYIGWDKHYGFQLYQSDPSGNYGGWKATCIGNNSAAAVSMLKQDYKEGEMTLKSALALAIKVLNKTMDVSKLSAEKVEIATLTRENGKTVIRVLKQKEVEQLIKKHEEEEAKAEREKKEKEQKEKDK [PSMA4]    59.5
3. MMWQKYAGSRRSMPLGARILFHGVFYAGGFAIVYYLIQKFHSRALYYKLAVEQLQSHPEAQEALGPPLNIHYLKLIDRENFVDIVDAKLKIPVSGSKSEGLLYVHSSRGGPFQRWHLDEVFLELKDGQQIPVFKLSGENGDEVKKE [COA1]    54.7
4. MGDPERPEAAGLDQDERSSSDTNESEIKSNEEPLLRKSSRRFVIFPIQYPDIWKMYKQAQASFWTAEEVDLSKDLPHWNKLKADEKYFISHILAFFAASDGIVNENLVERFSQEVQVPEARCFYGFQILIENVHSEMYSLLIDTYIRDPKKREFLFNAIETMPYVKKKADWALRWIADRKSTFGERVVAFAAVEGVFFSGSFAAIFWLKKRGLMPGLTFSNELISRDEGLHCDFACLMFQYLVNKPSEERVREIIVDAVKIEQEFLTEALPVGLIGMNCILMKQYIEFVADRLLVELGFSKVFQAENPFDFMENISLEGKTNFFEKRVSEYQRFAVMAETTDNVFTLDADF [RRM2B]    56.5
5. MGKGDPKKPRGKMSSYAFFVQTCREEHKKKHPDASVNFSEFSKKCSERWKTMSAKEKGKFEDMAKADKARYEREMKTYIPPKGETKKKFKDPNAPKRPPSAFFLFCSEYRPKIKGEHPGLSIGDVAKKLGEMWNNTAADDKQPYEKKAAKLKEKYEKDIAAYRAKGKPDAAKKGVVKAEKSKKKKEEEEDEEDEEDEEEEEDEEDEDEEEDDDDE [HMGB1]    55.4
6. MSAHNRGTELDLSWISKIQVNHPAVLRRAEQIQARRTVKKEWQAAWLLKAVTFIDLTTLSGDDTSSNIQRLCYKAKYPIREDLLKALNMHDKGITTAAVCVYPARVCDAVKALKAAGCNIPVASVAAGFPAGQTHLKTRLEEIRLAVEDGATEIDVVINRSLVLTGQWEALYDEIRQFRKACGEAHLKTILATGELGTLTNVYKASMIAMMAGSDFIKTSTGKETVNATFPVAIVMLRAIRDFFWKTGNKIGFKPAGGIRSAKDSLAWLSLVKEELGDEWLKPELFRIGASTLLSDIERQIYHHVTGRYAAYHDLPMS [DERA]    56.1
7. MEGCVSNLMVCNLAYSGKLEELKESILADKSLATRTDQDSRTALHWACSAGHTEIVEFLLQLGVPVNDKDDAGWSPLHIAASAGRDEIVKALLGKGAQVNAVNQNGCTPLHYAASKNRHEIAVMLLEGGANPDAKDHYEATAMHRAAAKGNLKMIHILLYYKASTNIQDTEGNTPLHLACDEERVEEAKLLVSQGASIYIENKEEKTPLQVAKGGLGLILKRMVEG [PSMD10]    48.5

----------
- Test system: HeLa Kyoto
- assay_details: solubility change mitosis vs G1/S (difference of NP-40 vs SDS log2 ratios) (log2 ratio difference); higher = more soluble in mitosis
endpoint_name: solubility change mitosis (log2)

1) MATRQRESSITSCCSTSSCDADDEGVRGTCEDASLCKRFAVSIGYWHDPYIQHFVRLSKERKAPEINRGYFARVHGVSQLIKAFLRKTECHCQIVNLGAGMDTTFWRLKDEDLLPSKYFEVDFPMIVTRKLHSIKCKPPLSSPILELHSEDTLQMDGHILDSKRYAVIGADLRDLSELEEKLKKCNMNTQLPTLLIAECVLVYMTPEQSANLLKWAANSFERAMFINYEQVNMGDRFGQIMIENLRRRQCDLAGVETCKSLESQKERLLSNGWETASAVDMMELYNRLPRAEVSRIESLEFLDEMELLEQLMRHYCLCWATKGGNELGLKEITY [LCMT1]    -0.123
2) MAAAAMAAAAGGGAGAARSLSRFRGCLAGALLGDCVGSFYEAHDTVDLTSVLRHVQSLEPDPGTPGSERTEALYYTDDTAMARALVQSLLAKEAFDEVDMAHRFAQEYKKDPDRGYGAGVVTVFKKLLNPKCRDVFEPARAQFNGKGSYGNGGAMRVAGISLAYSSVQDVQKFARLSAQLTHASSLGYNGAILQALAVHLALQGESSSEHFLKQLLGHMEDLEGDAQSVLDARELGMEERPYSSRLKKIGELLDQASVTREEVVSELGNGIAAFESVPTAIYCFLRCMEPDPEIPSAFNSLQRTLIYSISLGGDTDTIATMAGAIAGAYYGMDQVPESWQQSCEGYEETDILAQSLHRVFQKS [ADPRHL2]    -0.105
3) MAELRVLVAVKRVIDYAVKIRVKPDRTGVVTDGVKHSMNPFCEIAVEEAVRLKEKKLVKEVIAVSCGPAQCQETIRTALAMGADRGIHVEVPPAEAERLGPLQVARVLAKLAEKEKVDLVLLGKQAIDDDCNQTGQMTAGFLDWPQGTFASQVTLEGDKLKVEREIDGGLETLRLKLPAVVTADLRLNEPRYATLPNIMKAKKKKIEVIKPGDLGVDLTSKLSVISVEDPPQRTAGVKVETTEDLVAKLKEIGRI [ETFB]    0.0272
4) MKLIILEHYSQASEWAAKYIRNRIIQFNPGPEKYFTLGLPTGSTPLGCYKKLIEYYKNGDLSFKYVKTFNMDEYVGLPRDHPESYHSFMWNNFFKHIDIHPENTHILDGNAVDLQAECDAFEEKIKAAGGIELFVGGIGPDGHIAFNEPGSSLVSRTRVKTLAMDTILANARFFDGELTKVPTMALTVGVGTVMDAREVMILITGAHKAFALYKAIEEGVNHMWTVSAFQQHPRTVFVCDEDATLELKVKTVKYFKGLMLVHNKLVDPLYSIKEKETEKSQSSKKPYSD [GNPDA1]    -0.206
5) MSALEKSMHLGRLPSRPPLPGSGGSQSGAKMRMGPGRKRDFSPVPWSQYFESMEDVEVENETGKDTFRVYKSGSEGPVLLLLHGGGHSALSWAVFTAAIISRVQCRIVALDLRSHGETKVKNPEDLSAETMAKDVGNVVEAMYGDLPPPIMLIGHSMGGAIAVHTASSNLVPSLLGLCMIDVVEGTAMDALNSMQNFLRGRPKTFKSLENAIEWSVKSGQIRNLESARVSMVGQVKQCEGITSPEGSKSIVEGIIEEEEEDEEGSESISKRKKEDDMETKKDHPYTWRIELAKTEKYWDGWFRGLSNLFLSCPIPKLLLLAGVDRLDKDLTIGQMQGKFQMQVLPQCGHAVHEDAPDKVAEAVATFLIRHRFAEPIGGFQCVFPGC [PPME1]    0.0133
